Item-by-item account of pest or weed control at 500 ppm
# System: Colletotrichum lindemuthianum
# Measurement protocol: In vivo preventive test on Colletotrichum lindemuthianum (Anthracnose on bean)
# Stated conditions: Colletotrichum lindemuthianum, 144 h, 500 ppm of active ingredient, sprayed 72 hours before inoculation, evaluated 6 days after inoculation, read-out: efficacy
Parameter measured: pest or weed control at 500 ppm

1. C=CC1CC1(NC(=O)c1sc(Br)c(Br)c1C)C(=O)OC (stereo not shown) :: 80 to 89%
2. COC(=O)C(NC(=O)c1sc(Br)c(Br)c1C)C1CC1 (stereo not shown) :: 70 to 79%
3. CCOC(=O)C(C#N)NC(=O)c1sc(Br)c(Br)c1C (stereo not shown) :: 90 to 100%
4. COC(=O)C(Cc1c[nH]cn1)NC(=O)c1sc(Br)c(Br)c1C (stereo not shown) :: 90 to 100%
5. CCOC(=O)[C@@H](NC(=S)c1sc(Br)c(Br)c1C)C(C)C :: 90 to 100%
6. Cc1c(C(=S)N[C@H](C(=O)O)C(C)C)sc(Br)c1Br :: 90 to 100%
7. CCOC(=O)C1(NC(=O)c2cc(Br)c(Br)s2)CC1 [CMP2, reference compound] :: 0%
8. COC(=O)C1(NC(=O)c2sc(Br)c(Br)c2C)CCC1 :: 80 to 89%
9. CCOC(=O)C(Cc1c[nH]c2ccccc12)NC(=O)c1sc(Cl)c(Cl)c1C (stereo not shown) :: 90 to 100%
10. CCOC(=O)C(COC)NC(=O)c1sc(Cl)c(Cl)c1C (stereo not shown) :: 90 to 100%

* * *

# Tested on: Peronospora parasitica
# Measurement protocol: In vivo preventive test on Peronospora parasitica (Crucifer downy mildew) on cabbage
# Stated conditions: Hyaloperonospora parasitica, 120 h, 31 ppm of active ingredient, sprayed 72 hours before inoculation, evaluated 5 days after inoculation, read-out: efficacy
Below: a set of entries, each annotated with reported pest or weed control at 31 ppm.
Parameter measured: pest or weed control at 31 ppm

1) CCOC(=O)C(NC(=O)c1sc(Cl)c(Cl)c1C)C1CC1 (stereo not drawn) [I.083] :: 90 to 100%
2) COC(=O)C(NC(=O)c1sc(Br)c(Br)c1C)C1CC1 (stereo not drawn) [I.032] :: 80 to 89%
3) COC(=O)C(CC(F)F)NC(=O)c1sc(Br)c(Br)c1C (stereo not drawn) [I.108] :: 70 to 79%
4) Cc1c(C(=S)NC2(C(=O)O)CC2)sc(Cl)c1Cl [I.060] :: 90 to 100%
5) CCOC(=O)C(NC(=O)c1sc(Cl)c(Cl)c1C)C(F)(F)F (stereo not drawn) [I.164] :: 90 to 100%
6) CCOC(=O)C(COC)NC(=O)c1sc(Cl)c(Cl)c1C (stereo not drawn) [I.044] :: 90 to 100%
7) COC(=O)CC[C@H](NC(=O)c1sc(Cl)c(Cl)c1C)C(=O)OC [I.122] :: 90 to 100%
8) COC(=O)C(NC(=O)c1sc(Cl)c(Cl)c1C)c1cccs1 (stereo not drawn) [I.165] :: 90 to 100%
9) COC(=O)C1(NC(=O)c2sc(Br)c(Br)c2C)CSC1 [I.015] :: 90 to 100%
10) Cc1c(C(=O)NC(C(=O)O)C2CC2)sc(Cl)c1Cl (stereo not drawn) [I.095] :: 80 to 89%
11) COC(=O)[C@H](CCCNC(=N)N)NC(=O)c1sc(Cl)c(Cl)c1C [I.079] :: 80 to 89%
12) CCSC(=O)C1(NC(=O)c2sc(Cl)c(Cl)c2C)CC1 [I.049] :: 90 to 100%
13) CCCOC(=O)C1(NC(=O)c2sc(Br)c(Br)c2C)CCC1 [I.133] :: 70 to 79%
14) CCOC(=O)C(CO)NC(=O)c1sc(Br)c(Br)c1C (stereo not drawn) [I.006] :: 80 to 89%
15) Cc1c(C(=O)NC(Cc2c[nH]c3ccccc23)C(=O)O)sc(Cl)c1Cl (stereo not drawn) [I.070] :: 70 to 79%
16) CCOC(=O)C1(NC(=O)c2sc(Cl)c(Cl)c2C)CCC1 [I.047] :: 90 to 100%
17) CCOC(=O)C(C#N)NC(=O)c1sc(Br)c(Br)c1C (stereo not drawn) [I.077] :: 80 to 89%
18) CCOC(=O)C(CC(N)=O)NC(=O)c1sc(Cl)c(Cl)c1C (stereo not drawn) [I.045] :: 90 to 100%
19) Cc1c(C(=O)NC2(C(=O)O)CCC2)sc(Br)c1Br [I.137] :: 70 to 79%
20) CCOC(=O)C(CO)NC(=O)c1sc(Cl)c(Cl)c1C (stereo not drawn) [I.039] :: 90 to 100%
21) COC(=O)C(NC(=O)c1cc(Br)c(Br)s1)C1CC1 (stereo not drawn) [CMP10, reference compound] :: < 30%
22) COC(=O)C(C)(C)NC(=O)c1sc(Cl)c(Cl)c1C [I.176] :: 70 to 79%
23) COC(=O)C(NC(=O)c1sc(Cl)c(Cl)c1C)C1CC1 (stereo not drawn) [I.081] :: 80 to 89%
24) CCOC(=O)C1(NC(=O)c2sc(Br)c(Br)c2C)CCC1 [I.132] :: 80 to 89%
25) COC(=O)C(NC(=O)c1sc(Br)c(Br)c1Br)C1CC1 (stereo not drawn) [CMP14, reference compound] :: 0%
26) CCOC(=O)C1(NC(=O)c2sc(Br)c(Br)c2C)COC1 [I.014] :: 90 to 100%
27) CCOC(=O)[C@@H](NC(=S)c1sc(Br)c(Br)c1C)C(C)C [I.023] :: 80 to 89%
28) COC(=O)CC[C@H](NC(=O)c1sc(Br)c(Br)c1C)C(=O)OC [I.136] :: 80 to 89%
29) Cc1c(C(=O)NC2(C(=O)O)CCC2)sc(Cl)c1Cl [I.175] :: 90 to 100%
30) CCOC(=O)C(CC(N)=O)NC(=O)c1sc(Br)c(Br)c1C (stereo not drawn) [I.016] :: 90 to 100%
31) COC(=O)C1(NC(=O)c2sc(Br)c(Br)c2C)CCC1 [I.131] :: 80 to 89%
32) COC(=O)C(CC(F)F)NC(=O)c1sc(Cl)c(Cl)c1C (stereo not drawn) [I.043] :: 90 to 100%
33) COC(=O)C1(NC(=O)c2sc(Cl)c(Cl)c2C)CCC1 [I.171] :: 90 to 100%

* * *

# System: Colletotrichum lindemuthianum
# Measurement protocol: In vivo preventive test on Colletotrichum lindemuthianum (Anthracnose on bean)
# Stated conditions: Colletotrichum lindemuthianum, 144 h, 500 ppm of active ingredient, sprayed 72 hours before inoculation, evaluated 6 days after inoculation, read-out: efficacy
# Experimental: The tested active ingredients were prepared by homogenization in a mixture of acetone/Dimethyl sulfoxide/Tween®, and then diluted with water to obtain the desired active material concentration. The young plants of bean were treated by spraying the active ingredient prepared as described above. Control plants were treated only with an aqueous solution of acetone/Dimethyl sulfoxide/Tween®. […] The test was evaluated 6 days after the inoculation. […]
In this section we review reported pest or weed control at 500 ppm values for a set of compounds.
Parameter measured: pest or weed control at 500 ppm

1) CCOC(=O)C(CO)NC(=O)c1sc(Br)c(Br)c1C (stereo not shown) [I.006] :: 70 to 79%
2) CCOC(=O)C1(NC(=O)c2sc(Cl)c(Cl)c2C)CCC1 [I.047] :: 90 to 100%
3) COC(=O)C(CC(F)F)NC(=O)c1sc(Cl)c(Cl)c1C (stereo not shown) [I.043] :: 90 to 100%
4) CCOC(=O)CN(C)C(=O)c1sc(Br)c(Br)c1Br [CMP15, reference compound] :: < 40%
5) Cc1c(C(=O)NC2(C(=O)O)CCC2)sc(Br)c1Br [I.137] :: 90 to 100%
6) CCOC(=O)C1(NC(=O)c2sc(Br)c(Br)c2C)CCC1 [I.132] :: 70 to 79%
7) COC(=O)C(NC(=O)c1sc(Cl)c(Cl)c1C)C1CC1 (stereo not shown) [I.081] :: 80 to 89%
8) CCOC(=O)C(CC(N)=O)NC(=O)c1sc(Cl)c(Cl)c1C (stereo not shown) [I.045] :: 80 to 89%
9) Cc1c(C(=O)NC(C(=O)O)C2CC2)sc(Br)c1Br (stereo not shown) [I.080] :: 70 to 79%
10) CCOC(=O)C1(NC(=O)c2sc(Br)c(Br)c2C)COC1 [I.014] :: 90 to 100%

* * *

LogP overview
# Measurement protocol: LogP by HPLC on reversed phase columns (EEC directive 79/831 Annex V.A8)
# Assay type: physicochemical
# Stated conditions: method [a]
Parameter measured: LogP

1. Cc1c(C(=O)NCC2(C(=O)O)CC2)sc(Br)c1Br :: 2.50^[a]
2. Cc1c(C(=O)NC(C#N)c2ccccc2)sc(Br)c1Br (centres unmarked) :: 3.85^[a]
3. COC(=O)[C@@H](CC(N)=O)NC(=O)c1sc(Cl)c(Cl)c1C :: 2.05^[a]
4. COC(=O)C(C1CC1)N(O)C(=O)c1sc(Cl)c(Cl)c1C (centres unmarked) :: 3.13^[a]
5. CCOC(=O)CCC(NC(=O)c1sc(Cl)c(Cl)c1C)C(=O)OCC (centres unmarked) :: 3.84^[a]
